Data origin: ChEMBL document CHEMBL1201862

System: EKVX
assay overview: NCI tumour cell line growth inhibition, 48 h
Active and inactive are the calls of the source. Rule as the data show it: active = GI50 up to about 1.1 µM and inactive = higher.
readout name: GI50

Some solved entries appear below for comparison.
// map O=C(Nc1cc(Cl)c(Cl)cc1Cl)C(=O)C(C(=O)c1ccc(Cl)c(Cl)c1)C1OC(=O)c2ccccc21 (stereo not drawn) to recorded GI50 (system: EKVX) 19.6 µM (inactive)

GI50 of CSCCC(NC(c1ccccc1)c1ccccc1)[PH](=O)O (stereo not drawn) on EKVX? > 100 µM (inactive)

Item O/N=C1/CCCc2nonc21 with EKVX - GI50? > 100 µM (inactive)

Return GI50 measured with EKVX given this molecule: CC(C)(C)[Si](C)(C)O/N=C\c1cccc(O[Si](C)(C)C(C)(C)C)c1 18.5 µM (inactive)

Form entry - test system: EKVX; read-out: GI50; molecule: COC(OC)C1OCC(n2cc(F)c(=O)[nH]c2=O)C1O (stereo not drawn) > 100 µM (inactive)

Your task in this section: give GI50 for each listed record.
1. OCC(O)COc1c(Cl)cc(Cl)cc1Cl (stereo not drawn)
2. O=C1/C(=C\c2ccco2)Oc2ccccc21
3. C/C(N)=C/C(=O)c1[nH]c(C(=O)O)cc1C1CCN(Cc2ccccc2)C1=O (stereo not drawn)
4. COc1ncn(C2C=C(CO)C(O)C2O)c(=O)n1 (stereo not drawn)
5. CCNc1ncnc2c1nnn2CC
6. COc1ccc(CCNC(=O)c2ccccc2C2c3ccc(OCc4ccccc4)cc3Oc3cc(OCc4ccccc4)ccc32)cc1OC
7. COc1ccc(OC)c(C2Cc3cnc4nc(N)nc(N)c4c3C2)c1 (stereo not drawn)

1. > 100 µM (inactive)
2. 42.9 µM (inactive)
3. 30.1 µM (inactive)
4. > 100 µM (inactive)
5. > 100 µM (inactive)
6. > 100 µM (inactive)
7. 25.6 µM (inactive)

Fill in the recorded GI50 for this molecule, with EKVX as test system: CN1CCc2cc3c4cc2C1Cc1ccc(cc1)Oc1cc(ccc1O)CC1c2c(cc(O)c(c2O4)O3)CCN1C (stereo not drawn) 7.08 µM (inactive)

---

Could you please report measured GI50 for the items listed next?
Tested on: SK-MEL-28
assay overview: NCI tumour cell line growth inhibition, 48 h
Calls of active or inactive are those of the source. Cut-off read from the data, not from the text of the source: active = GI50 up to about 1.1 µM and inactive = higher.

// below: answered compounds
Quick check: GI50 of C=CCC1C(O[Si](C)(C)C(C)(C)C)C(CO[Si](C)(C)C(C)(C)C)OC1n1ccc(=O)[nH]c1=O (stereo not drawn) ? 1.58 µM (inactive)

Give its GI50 value. Item: CC(=O)OC[C@H]1CN(OC(C)=O)C[C@@H](n2cc(C)c(=O)[nH]c2=O)O1 > 100 µM (inactive)

Dear colleague, could you please provide GI50 for the compounds listed below?
1. CC(=O)c1ccc(N2CCN(C3=C(Cl)C(=O)c4c(O)ccc(O)c4C3=O)CC2)cc1
2. O=c1oc2c3ccc4ccccc4c3n(CCCN3CCCCC3)c2c2ccccc12
3. O=C(N/C(=C\c1cccc([N+](=O)[O-])c1)c1nc2c(O)nc(S)nc2[nH]1)c1ccccc1
4. NCC1(N2CCOCC2)C2CCCC21CNc1ccccc1 (stereo not drawn)

1: 5.21 µM (inactive); 2: 19.1 µM (inactive); 3: > 100 µM (inactive); 4: > 100 µM (inactive)

Value sought for every listed compound: GI50.
1. O=c1cc(-c2ccccc2)oc2cc(Oc3nnnn3-c3ccccc3)ccc12
2. COc1cc2c(c(O)c1OC)C(=O)[C@@H]1CCC(=O)N1C2

1: 79.1 µM (inactive); 2: > 100 µM (inactive)
